pKi: −log10 of the molar value.
pKi for UniProtKB O43614 - collated from the literature.
Definition: the class of an entry is the range in low range = under 6, mid range = from 6 up to 7, high range = 7 and over that contains its pKi.

Please review the entries below; each comes with its answer.
molecule: O=C(c1cccc(F)c1-c1ncco1)N1CC2CN(c3cnc4cc(F)c(F)cc4n3)CC2C1 (centres unmarked)
group: high range

molecule: C[C@H]1[C@H](Oc2ccc(C(F)(F)F)cn2)CCCN1C(=O)c1ccccc1-c1ncccn1
group: mid range

molecule: O=C(c1cc(F)ccc1-c1ncc(F)cn1)N1[C@H](CF)[C@@H]2CC[C@H]1[C@H](Oc1ccc(C(F)(F)F)cn1)C2
group: low range

molecule: Cc1cnc(-n2nccn2)c(C(=O)N2CCC[C@@H](Oc3ccc(Cl)cn3)[C@@H]2C)c1
group: low range

molecule: Cc1ccc(-n2nccn2)c(C(=O)N2[C@H](CF)[C@@H]3CC[C@H]2[C@H](Oc2ccc(C(F)(F)F)cn2)C3)n1
group: low range

INPUT: Which pKi band matches COC[C@@H]1[C@@H]2CC[C@@H]([C@H](Oc3ccc(C(F)(F)F)cn3)C2)N1C(=O)c1nc(C)ccc1-c1ncccn1 ?
OUTPUT: low range

INPUT: Try this molecule too: C[C@H]1[C@H](Oc2ncc(C(F)(F)F)cc2F)CCCN1C(=O)c1cccc(F)c1-n1nccn1
OUTPUT: low range

INPUT: How about this molecule: Cc1ccc(-c2ncccn2)c(C(=O)N2CC3CN(c4nc(C)c(C)c(C)n4)CC3C2)n1 (centres unmarked)
OUTPUT: high range
